tested on: HL-60; test: Cytotoxicity against human HL60 cells after 48 hrs by MTT assay; assay type: functional, cell-based; conditions: HL-60, 48 h
Reported IC50 maps to class as: low (below 1000 nM), moderate (1000 nM to below 3000 nM), high (3000 nM or more)

Query: Record `CCc1c2c(nc3ccccc13)-c1cc3c(c(=O)n1C2)COC(=O)[C@@]3(CC)OC(=O)CCCCCNC(=O)CCCC[C@@H]1SC[C@@H]2NC(=O)N[C@@H]21` — which class?
Result: low

Query: Hello team, could you let me know which band the following compound falls into: `CC[C@@]1(OC(=O)CCCC[C@@H]2SC[C@@H]3NC(=O)N[C@@H]32)C(=O)OCc2c1cc1n(c2=O)Cc2cc3ccccc3nc2-1`
Result: moderate

Query: Class for `CCc1c2c(nc3ccc(OC(=O)CCCCCNC(=O)CCCC[C@@H]4SC[C@@H]5NC(=O)N[C@@H]54)cc13)-c1cc3c(c(=O)n1C2)COC(=O)[C@]3(O)CC` ?
Result: low

Query: Where would `CCc1c2c(nc3ccccc13)-c1cc3c(c(=O)n1C2)COC(=O)[C@@]3(CC)OCc1cn(CCOCCOCCNC(=O)CCCC[C@@H]2SC[C@@H]3NC(=O)N[C@@H]32)nn1` land among the classes by reported IC50?
Result: high

Query: Each compound maps to one class by IC50. Which class for `CC[C@@]1(O)C(=O)OCc2c1cc1n(c2=O)Cc2cc3cc(OC(=O)CCCC[C@@H]4SC[C@@H]5NC(=O)N[C@@H]54)ccc3nc2-1` ?
Result: high

Query: Using the reported IC50, which band applies to `CC[C@@]1(OCc2cn(CCOCCOCCOCCOCCOCCNC(=O)CCCC[C@@H]3SC[C@@H]4NC(=O)N[C@@H]43)nn2)C(=O)OCc2c1cc1n(c2=O)Cc2cc3ccccc3nc2-1` ?
Result: high

Query: Into which category would you place `CCc1c2c(nc3ccccc13)-c1cc3c(c(=O)n1C2)COC(=O)[C@@]3(CC)OC(=O)CCCC[C@@H]1SC[C@@H]2NC(=O)N[C@@H]21` ?
Result: moderate

Query: Classify this compound: `CC[C@@]1(OC(=O)CCCCCNC(=O)CCCC[C@@H]2SC[C@@H]3NC(=O)N[C@@H]32)C(=O)OCc2c1cc1n(c2=O)Cc2cc3ccccc3nc2-1`
Result: high

Query: Bin? `CC[C@@]1(O)C(=O)OCc2c1cc1n(c2=O)Cc2cc3cc(OC(=O)CCCCCNC(=O)CCCC[C@@H]4SC[C@@H]5NC(=O)N[C@@H]54)ccc3nc2-1`
Result: moderate

Query: Category lookup for the compound `CCc1c2c(nc3ccc(OC(=O)CCCC[C@@H]4SC[C@@H]5NC(=O)N[C@@H]54)cc13)-c1cc3c(c(=O)n1C2)COC(=O)[C@]3(O)CC`
Result: high

Query: Hey, which category is CC[C@@]1(O)C(=O)OCc2c1cc1n(c2=O)Cc2cc3ccccc3nc2-1 [CAMPTOTHECIN] in, do you know?
Result: low

Query: Class (by measured IC50) for `CC[C@@]1(OCc2cn(CCOCCOCCNC(=O)CCCC[C@@H]3SC[C@@H]4NC(=O)N[C@@H]43)nn2)C(=O)OCc2c1cc1n(c2=O)Cc2cc3ccccc3nc2-1`
Result: low

Query: Into which category would you place `CCc1c2c(nc3ccccc13)-c1cc3c(c(=O)n1C2)COC(=O)[C@@]3(CC)OCc1cn(CCOCCOCCOCCOCCOCCNC(=O)CCCC[C@@H]2SC[C@@H]3NC(=O)N[C@@H]32)nn1` ?
Result: high

###

tested on: SW480; experiment: Cytotoxicity against human SW480 cells after 48 hrs by MTT assay; type: functional, cell-based; settings: SW480, 48 h
pIC50: −log10 of the molar value.
Record form. Attribute: pIC50. Fill in for each entry.

Query: Requested read-out pIC50, target or system SW480, entry `CCc1c2c(nc3ccccc13)-c1cc3c(c(=O)n1C2)COC(=O)[C@@]3(CC)OCc1cn(CCOCCOCCNC(=O)CCCC[C@@H]2SC[C@@H]3NC(=O)N[C@@H]32)nn1`
Result: < 4.40

Query: Look up pIC50 with SW480 for this compound: `CC[C@@]1(OC(=O)CCCCCNC(=O)CCCC[C@@H]2SC[C@@H]3NC(=O)N[C@@H]32)C(=O)OCc2c1cc1n(c2=O)Cc2cc3ccccc3nc2-1`
Result: < 4.40

Query: Find the measured pIC50: item `CC[C@@]1(OCc2cn(CCOCCOCCOCCOCCOCCNC(=O)CCCC[C@@H]3SC[C@@H]4NC(=O)N[C@@H]43)nn2)C(=O)OCc2c1cc1n(c2=O)Cc2cc3ccccc3nc2-1` , target or system SW480.
Result: < 4.40

# credit: ChEMBL document CHEMBL4371030
